Could you please report measured binding signal for the items listed next?
System: GST-Hu-p50 (Homo sapiens, UniProt P19838 7-356)
Sequence (P19838 7-356): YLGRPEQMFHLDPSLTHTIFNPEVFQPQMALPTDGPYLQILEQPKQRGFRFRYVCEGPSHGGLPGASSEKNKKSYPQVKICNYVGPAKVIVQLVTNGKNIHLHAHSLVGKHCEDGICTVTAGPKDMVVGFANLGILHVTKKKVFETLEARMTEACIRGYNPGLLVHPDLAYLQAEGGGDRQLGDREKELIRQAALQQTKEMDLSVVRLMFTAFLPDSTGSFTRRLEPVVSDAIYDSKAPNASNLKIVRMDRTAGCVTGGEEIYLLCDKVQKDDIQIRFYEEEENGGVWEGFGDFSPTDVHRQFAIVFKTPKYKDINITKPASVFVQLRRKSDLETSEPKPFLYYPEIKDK
Method description: protein-binding microarray (PBM); PBM: ~300 nM protein, 6 mM HEPES pH 7.8, 80 mM KCl, 0.5 mM EDTA, 0.5 mM EGTA, 6% glycerol, 35 ng/ul poly-dIdC, 1% milk, 1 h, room temperature; Ap Aiptasia and Nv Nematostella (sea anemones) / Co Capsaspora / Aq Amphimedon (sponge) / Dm Drosophila / Hu human; RHD is the Rel homology domain; high values mean tight binding
Reported conditions: dsDNA, one strand shown
Give bare numbers, in z-score.

Reference set (2 entries):
- Seq string: "CCGATTAACATCAAAACACCCCCTGATGTTAATCGGGTCTTGATTCGCTTGACGCTGCTG"
  Unit: "z-score"
  binding signal: 6.04
- Seq string: "CCGATTAACATCAAATACCCCCTTGATGTTAATCGGGTCTTGATTCGCTTGACGCTGCTG"
  Unit: "z-score"
  binding signal: 5.85

Lab note: next sequence to report on.
Input: State binding signal (GST-Hu-p50 (Homo sapiens, UniProt P19838 7-356)) of "CCGATTAACATCAAAATTCCCTTTGATGTTAATCGGGTCTTGATTCGCTTGACGCTGCTG" .
Output: 6.07
